Source listed as patent US20080058293A1.

Listed compounds paired with reported pIC50
target: P2X7 receptor (Homo sapiens, UniProt Q99572); construct: 200 μl of a suspension of THP-1 cells; endogenous in cells; test: bbATP-induced ethidium bromide fluorescence in THP-1 cells, P2X7 receptor antagonist activity; conditions: negative logarithm of concentration reducing bbATP agonist activity by 50%, 10^-5M bbATP, 37° C. one hour
Sequence (Q99572 whole entry): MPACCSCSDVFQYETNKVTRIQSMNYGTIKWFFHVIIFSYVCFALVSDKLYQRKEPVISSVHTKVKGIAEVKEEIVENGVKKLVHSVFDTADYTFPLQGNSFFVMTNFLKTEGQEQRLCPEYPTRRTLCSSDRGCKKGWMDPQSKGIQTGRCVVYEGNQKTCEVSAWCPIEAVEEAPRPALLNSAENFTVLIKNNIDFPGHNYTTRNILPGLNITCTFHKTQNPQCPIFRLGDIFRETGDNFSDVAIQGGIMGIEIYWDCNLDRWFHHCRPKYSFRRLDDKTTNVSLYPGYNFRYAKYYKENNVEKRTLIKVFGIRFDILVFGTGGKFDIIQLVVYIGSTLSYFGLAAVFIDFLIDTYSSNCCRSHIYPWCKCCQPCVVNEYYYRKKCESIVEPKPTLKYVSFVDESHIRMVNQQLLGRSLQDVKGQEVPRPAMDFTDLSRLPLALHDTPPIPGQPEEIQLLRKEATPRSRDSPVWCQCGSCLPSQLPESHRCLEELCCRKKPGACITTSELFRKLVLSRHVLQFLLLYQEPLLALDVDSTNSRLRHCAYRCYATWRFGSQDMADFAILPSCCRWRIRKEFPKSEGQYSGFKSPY
Where a name gives a salt, the structure may show the parent alone.
Scale: pIC50 equals -log10([C]), with [C] in mol/L.

The compound listed as Cc1ccc2c(C(=O)NC[C@H](C)c3ccccc3)c(Cl)ccc2n1 [Example 1, hydrochloride] has a reported pIC50 of 6.50

response.value for CNCCCN(C)c1ccc2c(NC(=O)C[C@@H](C)c3ccccc3)c(Cl)ccc2n1 [Example 3, ditrifluoroacetate] (field: pIC50) = 7.50

Lab note: measured pIC50 of O=C(CCc1ccccc1Cl)Nc1c(Cl)ccc2nc(N3CCC(C(=O)O)CC3)ccc12 [Example 20, potassium salt] was 6.10

----------
Some compounds, each annotated with its measured melting point.
Structures can show the parent of a compound that is named as a salt.

# annotated cases, reported melting point shown
# compound, melting point
records = [
    ("O=C(CCc1ccccc1)Nc1c(Cl)ccc2nc(N3CCNCC3)ccc12 [Example 17]", "231 to 234 °C"),
    ("C[C@H](CC(=O)Nc1c(Cl)ccc2nc(N3CC[C@H](NCCO)C3)ccc12)c1ccccc1 (as salt: hydrochloride) [Example 16, dihydrochloride]", "177 to 182 °C"),
    ("Cc1ccc2c(C(=O)NC[C@@H](C)c3ccccc3)c(Cl)ccc2n1 (as salt: hydrochloride) [Example 2]", "182 to 185 °C"),
    ("C[C@H](CC(=O)Nc1c(Cl)ccc2nc(CCCNCCCO)ccc12)c1ccccc1 [Example 7]", "118 to 120 °C"),
]

Switching to the query record.
melting point in this record for Cc1ccc2c(C(=O)NC[C@H](C)c3ccccc3)c(Cl)ccc2n1 (as salt: hydrochloride) [Example 1] : 190 to 192 °C

----------
Structures can show the parent of a compound that is named as a salt.
# reported melting point; entries follow

# compound, melting point
records = [
    ("O=C(NCCc1c(Cl)cccc1Cl)c1c(Cl)ccc2nc(N3CCC(C(=O)O)CC3)ccc12", "262 to 264 °C"),
    ("O=C(NCCc1ccccc1Cl)c1c(Cl)ccc2nc(N3CC[C@H](NCCO)C3)ccc12", "170 to 172 °C"),
    ("CC(Cc1ccc(Cl)c(Cl)c1)C(=O)Nc1cccc2ncccc12 (stereo not shown)", "168 to 170 °C"),
]

Form: compound = C[C@H](CC(=O)Nc1c(Cl)ccc2nc(N3CC[C@H](N)C3)ccc12)c1ccccc1 ; melting point = 204 to 207 °C

The compound listed as O=C(NCCc1ccccc1F)c1c(Cl)ccc2nc(N3CCC(C(=O)O)CC3)ccc12 shows melting point equal to 270 to 272 °C

Record N[C@H]1CCN(c2ccc3c(NC(=O)CCc4ccccc4Cl)c(Cl)ccc3n2)C1 , field melting point: 200 to 212 °C

The compound listed as C[C@H](CNC(=O)c1c(Cl)ccc2nc(N3CCC(C(=O)O)CC3)ccc12)c1ccccc1 shows melting point equal to 150 to 153 °C

Entry N[C@H]1CCN(c2ccc3c(C(=O)NCCc4ccccc4Cl)c(Cl)ccc3n2)C1 , melting point reported as 196 to 198 °C

Reported melting point of O=C(CCc1ccc(Cl)cc1Cl)Nc1c(Cl)ccc2nc(N3CCNCC3)ccc12 (as salt: hydrochloride) [Example 11, dihydrochloride] : 200 °C (dec.)

Value of measured melting point for the entry C[C@H](CC(=O)Nc1c(Cl)ccc2nc(N3CCNCC3)ccc12)c1ccccc1 : 194 to 196 °C

melting point for O=C(NCCc1ccccc1)c1c(Cl)ccc2nc(N3CCC(C(=O)O)CC3)ccc12 is 260 to 262 °C

Recorded result, Cc1ccccc1CCNC(=O)c1c(Cl)ccc2nc(N3CCC(C(=O)O)CC3)ccc12 , melting point: 237 to 241 °C

Lab note: Cc1ccc2c(C(=O)NCCc3ccccc3)c(Cl)ccc2n1 gave melting point of 170 to 172 °C

For record O=C(NCC(c1ccccc1)c1ccccc1)c1c(Cl)ccc2nc(N3CCC(C(=O)O)CC3)ccc12 (as salt: acetate) the listed melting point is 180 to 185 °C

Reported melting point for O=C(NCCc1ccccc1Cl)c1c(Cl)ccc2nc(N3CCC(C(=O)O)CC3)ccc12 was 250 to 253 °C

For reference, reported melting point for O=C(NCCc1ccc(Cl)cc1)c1c(Cl)ccc2nc(N3CCC(C(=O)O)CC3)ccc12 stands at 231 to 234 °C
